- TARGET: T1, human IFNAR-1 on cells (human, UniProt P17181 28-557)
- T1 sequence (looked up): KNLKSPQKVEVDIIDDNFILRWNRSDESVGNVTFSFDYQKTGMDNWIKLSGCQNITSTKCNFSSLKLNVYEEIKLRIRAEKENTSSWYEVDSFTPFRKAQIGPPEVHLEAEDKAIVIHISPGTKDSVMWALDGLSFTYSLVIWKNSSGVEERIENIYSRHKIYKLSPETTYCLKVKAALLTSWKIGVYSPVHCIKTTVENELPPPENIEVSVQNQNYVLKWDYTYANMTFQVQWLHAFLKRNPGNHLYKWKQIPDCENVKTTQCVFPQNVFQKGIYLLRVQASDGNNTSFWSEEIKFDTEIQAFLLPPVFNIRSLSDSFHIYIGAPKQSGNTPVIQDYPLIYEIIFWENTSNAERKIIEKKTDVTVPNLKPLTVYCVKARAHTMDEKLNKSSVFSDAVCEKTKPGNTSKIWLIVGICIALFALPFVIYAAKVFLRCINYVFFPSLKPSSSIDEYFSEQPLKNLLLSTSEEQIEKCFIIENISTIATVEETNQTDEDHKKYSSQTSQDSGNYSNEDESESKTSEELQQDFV
- EXPERIMENT: cell-based or functional assay
Measured EC50 (nM), inhibition of IFNα2b-induced SEAP reporter in HEK-Blue IFNα/β cells by item
Lab book: enter the figure in nM, no units written.

Query: Form field: reported EC50 (nM), inhibition of IFNα2b-induced SEAP reporter in HEK-Blue IFNα/β cells of 392D6 (antibody, V domains shown, Hybridoma-derived monoclonal antibody) VH: AVQLQQSGTELVKPGASVKLSCSASGFNIKDYYVHWVKQKTEQGLEWIGRIDPEDGETKYAPKFQGKATVTADTSSNTAYMQLSSLTSEDTAVYYCTRFGGLDAMDYWGQGTSVTVSS VL: DIVMTQSQKFMSTSVGDRVSVTCKASQNVGTNVAWYQQKPGQSPKPLIYSTSYRYNGVPDRFTGSGSGTEFTLTISNVQSEDLAEYFCQQFNRYPYTFGGGTKLEIK
Reply: 0.824

Query: Quick one: EC50 (nM), inhibition of IFNα2b-induced SEAP reporter in HEK-Blue IFNα/β cells of 104A3 (antibody, V domains shown, Hybridoma-derived monoclonal antibody) VH: EVQLQQSGAELVKPGASVKVSCTGSGFNIKDYYIHWVKQRTEQGLEWIGRIDPEDGETKYAPKFQGKATITSDTSSNTAYLQLSSLTSGDTAVYFCARYDGYYCFDYWGQGTTLTVSS VL: DIVMTQSQKFMSTSVGDRVSVTCKASQNVGTNVAWYQQKPGQSPKPLIYSTSYRYSGVPDRFTGSGSGTDFTLTISNVQSADLAAYFCQQYNNYPYTFGGGTRLEIK ?
Reply: 1.31

Query: Endpoint output: EC50 (nM), inhibition of IFNα2b-induced SEAP reporter in HEK-Blue IFNα/β cells of 430H6 (antibody, V domains shown, Hybridoma-derived monoclonal antibody) VH: QVTLKESGPGILQPSQTLSLTCTFSGFSLNTYGMGVGWIRQPSGKGLEWLANIWWDDDKYYNPSLKNRLTISKDTSNNQAFLKITNVDTADTATYFCARHPLPGYKDNYVVDAWGQGASVTVSS VL: DVVLTQTPGSLSVTLGDQASISCRSSQSLEYSDQYTYLEWYLQKSGQSPQLLIYGVSNRFSGVPDRFIGSGSGTDFTLKISRVEPEDLGVYYCFQATHDPYTFGAGTKLELK . Value?
Reply: 1.3

Query: Consider the binder shown here: 106A7 (antibody, V domains shown, Hybridoma-derived monoclonal antibody) VH: EVQLQQSGADLVKPGASVKLSCTTSGFNIKDYYMHWVNQRTEQGLEWIGRIDPEDGETKYAPKFQGKATITADTSSNTAYLQLSSLTSEDTAVYYCARDWGHSFDYWGQGTTLTVSS VL: DIVMTQSQKFMSTSVGDRVSVTCKASQNVGTTVAWYQQKPGQSPKTLIYSASYRYSGVPDRFTGSGSGTDFTLTISNVQSEDLAEYFCQQYNSYTFGGGTKLEMK What is its recorded EC50 (nM), inhibition of IFNα2b-induced SEAP reporter in HEK-Blue IFNα/β cells?
Reply: 3.52

Query: Requested field: EC50 (nM), inhibition of IFNα2b-induced SEAP reporter in HEK-Blue IFNα/β cells. Item: 260H8 (antibody, V domains shown, Hybridoma-derived monoclonal antibody) VH: EVQLQESGPGLAKPSQTLSLTCSVTGYSITSDYWNWIRKFPGNKLEYMGYISYSGSIYYNPSLKSRISITRDTSKNQYYLQLNSVTNEDTATYYCARSGGMYYFDYWGQGTTLTVSS VL: DIQMTQSPASLSASVGETVTITCRASGNIHNYLAWYQQKQGKSPQLLVYNAKTLEDGVPSRFSGSGSGTQYSLKINSLQPEDFGSYYCQHFWSIPPTFGSGTKLEIK
Reply: 5.07
